- assay-system: human recombinant α2β3γ2 GABAA receptor (Homo sapiens, UniProt P28472+P47869)
- Sequence (P47869 29-451): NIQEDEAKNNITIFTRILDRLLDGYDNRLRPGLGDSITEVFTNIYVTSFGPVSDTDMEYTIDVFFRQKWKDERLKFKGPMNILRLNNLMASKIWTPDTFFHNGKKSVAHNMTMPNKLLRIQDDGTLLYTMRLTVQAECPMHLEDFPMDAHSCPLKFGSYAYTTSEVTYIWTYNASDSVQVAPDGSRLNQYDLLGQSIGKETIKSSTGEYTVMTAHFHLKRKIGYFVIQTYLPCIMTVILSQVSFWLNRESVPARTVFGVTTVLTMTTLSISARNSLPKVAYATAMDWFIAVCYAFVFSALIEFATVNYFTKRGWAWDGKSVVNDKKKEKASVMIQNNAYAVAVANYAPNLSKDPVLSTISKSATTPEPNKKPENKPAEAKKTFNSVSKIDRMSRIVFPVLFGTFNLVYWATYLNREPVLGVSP
- Sequence (P28472 26-473): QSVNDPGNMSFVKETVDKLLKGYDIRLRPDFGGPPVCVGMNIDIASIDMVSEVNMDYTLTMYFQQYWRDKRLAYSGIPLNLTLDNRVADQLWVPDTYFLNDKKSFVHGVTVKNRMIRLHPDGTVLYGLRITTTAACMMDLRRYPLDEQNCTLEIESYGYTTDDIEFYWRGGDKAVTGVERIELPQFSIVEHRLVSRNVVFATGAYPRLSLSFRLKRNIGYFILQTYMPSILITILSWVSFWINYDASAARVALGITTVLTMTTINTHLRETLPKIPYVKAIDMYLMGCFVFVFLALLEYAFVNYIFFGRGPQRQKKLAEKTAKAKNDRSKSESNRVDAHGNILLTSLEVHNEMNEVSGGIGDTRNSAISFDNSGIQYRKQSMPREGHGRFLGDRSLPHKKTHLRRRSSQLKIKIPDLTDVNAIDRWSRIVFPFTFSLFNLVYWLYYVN
- Sequence (P18507 40-475 partner): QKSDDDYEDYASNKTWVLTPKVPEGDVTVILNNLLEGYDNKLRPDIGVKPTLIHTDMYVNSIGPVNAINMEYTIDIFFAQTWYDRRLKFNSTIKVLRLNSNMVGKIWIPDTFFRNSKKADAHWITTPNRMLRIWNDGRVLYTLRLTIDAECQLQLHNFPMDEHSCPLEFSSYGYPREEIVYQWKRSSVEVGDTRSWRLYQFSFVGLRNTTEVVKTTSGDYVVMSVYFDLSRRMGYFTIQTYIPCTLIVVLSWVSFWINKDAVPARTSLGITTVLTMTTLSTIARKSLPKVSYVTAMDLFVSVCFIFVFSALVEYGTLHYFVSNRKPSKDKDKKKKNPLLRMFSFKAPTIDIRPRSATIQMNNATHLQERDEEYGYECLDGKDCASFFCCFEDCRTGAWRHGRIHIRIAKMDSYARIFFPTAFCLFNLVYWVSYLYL
- assay-remarks: IonWorks Barracuda patch clamp, α2β3γ2 in HEK cells
pEC50: −log10 of the molar value.

| item-smiles | pEC50 |
| --- | --- |
| C[C@@]1(O)CC[C@H]2[C@H](CC[C@@H]3[C@@H]2CC[C@]2(C)[C@@H](C(=O)Cn4cc(C#N)cn4)CC[C@@H]32)C1 | 6.29 |

----------
- assay-system: human recombinant α5β3γ2 GABAA receptor (Homo sapiens, UniProt P28472+P31644)
- Sequence (P31644 32-462): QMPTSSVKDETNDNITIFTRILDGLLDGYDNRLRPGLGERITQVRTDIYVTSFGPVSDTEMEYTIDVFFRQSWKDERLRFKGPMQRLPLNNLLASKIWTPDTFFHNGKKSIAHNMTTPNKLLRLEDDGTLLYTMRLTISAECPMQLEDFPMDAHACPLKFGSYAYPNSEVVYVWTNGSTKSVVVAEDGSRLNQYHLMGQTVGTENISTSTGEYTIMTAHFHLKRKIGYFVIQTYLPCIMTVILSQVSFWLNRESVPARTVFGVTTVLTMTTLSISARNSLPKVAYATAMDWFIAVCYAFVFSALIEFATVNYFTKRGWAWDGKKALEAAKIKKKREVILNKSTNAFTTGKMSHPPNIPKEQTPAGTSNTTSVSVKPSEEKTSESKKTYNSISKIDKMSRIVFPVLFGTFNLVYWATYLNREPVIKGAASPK
- Sequence (P28472 26-473): as the sequence (P28472 26-473) above
- Sequence (P18507 40-475 partner): as the sequence (P18507 40-475 partner) above
- assay-remarks: IonWorks Barracuda patch clamp, α5β3γ2 in HEK cells

| item-smiles | EC50 (nM) |
| --- | --- |
| C[C@@]1(O)CC[C@H]2[C@H](CC[C@@H]3[C@@H]2CC[C@]2(C)[C@@H](C(=O)Cn4cc(C#N)cn4)CC[C@@H]32)C1 | 298 |
